- experimental_system: Ribosomal protein S6 kinase alpha-2 (Homo sapiens);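 note: value is the mean inhibition of RSK3 within GSK PKIS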
- reported_conditions: at 1 µM
endpoint: inhibition (%)

cpd_smiles	test_result
COc1cc(Nc2nccc(Nc3ccc4c(C)n[nH]c4c3)n2)cc(OC)c1OC	0.74
NS(=O)(=O)c1ccc(N/N=C2\C(=O)Nc3ccc4ncccc4c32)cc1	61.7
O=C(O[C@H]1CN[C@H](C#Cc2cc3ncnc(Nc4ccc(Cc5ccccc5)cc4)c3s2)C1)N1CCOCC1	3
CS(=O)(=O)CCNCc1coc(-c2ccc3ncnc(Nc4ccc(OCc5ccccc5)cc4)c3c2)c1	3.14
Nc1ncc(-c2cccc(S(N)(=O)=O)c2)c2scc(-c3ccc(F)c(Cl)c3)c12	2.68
COc1cc(N2CCN(C(C)C)CC2)ccc1Nc1nc(Nc2ccc(F)cc2C(N)=O)c2cc[nH]c2n1	43.7
Cc1cccc2c1NC(=O)/C2=N\Nc1ccc(S(N)(=O)=O)cc1	2.49
FC(F)(F)c1cccc(-c2nn3ncccc3c2-c2ccnc(Nc3ccc4c(c3)OCCO4)n2)c1	2.46
CCCN(CCS(C)(=O)=O)Cc1ccc(-c2ccc3ncnc(Nc4ccc(OCc5cccc(F)c5)c(Cl)c4)c3c2)o1	1.46
CCc1nn2ncccc2c1-c1ccnc(NC2CC2)n1	2.75
Clc1ccc(-c2nn3ncccc3c2-c2ccnc(Nc3ccccc3)n2)cc1	1.37
[O-][S+]1CCN(Cc2ccc(-c3ccc4ncnc(Nc5ccc(OCc6cccc(F)c6)c(Cl)c5)c4c3)o2)CC1	3.37
CN1CCC(n2cnc(-c3ccc(F)cc3)c2-c2ccnc(N)n2)CC1	4.57
Fc1ccc(-c2cc(-c3c[nH]nc3-c3ccccn3)ccn2)cc1	2.64
COc1cc2c(cc1Nc1nc(Nc3ccsc3C(N)=O)c3cc[nH]c3n1)N(C(=O)CN(C)C)CCC2(C)C	34.4
